Where do the numbers come from? From PubChem BioAssay.

- ASSAY_REMARKS: MM1S myeloma cell viability, profiling panel, resazurin fluorescence, basal, 24 h, PK04 Diversity Set (AID 1174);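 note: MM1S multiple myeloma cell line; test concentration not given here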
- EXPERIMENTAL_CONTEXT: higher = more signal, called active from +8 up or from −8 down
Please enter rule met where z-score is greater than or equal to 0.1, and rule not met where it is lower.

# COMPOUND, ASSIGNED_CATEGORY
rows = [
    ("COC(=O)CC=C[C@@H](C)[C@@H](C=NOC[C@@H](C)[C@H](OCc1ccccc1)C(C)C)NS(=O)(=O)c1ccc(C)cc1", "rule not met"),
    ("CC(=O)OC[C@H]1O[C@H](CC=NOC[C@@H](O)COCc2ccco2)C=C[C@@H]1OC(C)=O", "rule met"),
    ("CCN1C(=O)[C@H]2[C@H]3[C@H](O)[C@H](O)CC(=NO[C@@H](C)c4cc(-c5c(C)cc(C)cc5C)no4)[C@@H]3CC[C@H]2C1=O", "rule not met"),
    ("CC(C)=CCCC(C)=CCON=C1C[C@@H](O)[C@@H](O)[C@@H]2[C@@H]3C(=O)N(C4CCCCC4)C(=O)[C@@H]3CC[C@H]12", "rule not met"),
    ("C[C@@H]1CC[C@H]2C(=O)OC(Cc3ccccc3)CN2[C@H]1c1ccc(Br)cc1 (stereo partly drawn)", "rule met"),
]

Inquiry: For this compound, is measured z-score 0.1 or higher? "CC(C)(C)N1C(=O)[C@H]2[C@H]3[C@H](O)[C@H](O)CC(=NOC[C@@H](O)COCc4ccco4)[C@@H]3CC[C@H]2C1=O"
Reply text: rule not met

Inquiry: For this compound, is measured z-score 0.1 or higher? "CCN1C(C)=C(C(=O)OC)[C@@H](c2ccccc2)N2C(=O)[C@](O)(C(=O)OC)CC(C(C)=O)=C12"
Reply text: rule met

Inquiry: For this compound, is measured z-score 0.1 or higher? C[C@]12CCC3c4ccc(OCC5CO5)cc4CCC3C1CC[C@@H]2O (stereo partly drawn)
Reply text: rule met
